procedure.text: in vivo
particulars: Sprague-Dawley, rat, lung, iv, 2 mg/kg
reported.property: concentration at 24 h (ng/g)
// note: answer is a bare numeric in ng/g

CC[C@H](C)C[C@H](C)CCCCCCCCC(=O)N[C@H]1C[C@@H](O)[C@@H](NCCN)NC(=O)[C@@H]2[C@@H](O)CCN2C(=O)[C@H]([C@H](O)CCN)NC(=O)[C@H]([C@H](O)[C@@H](O)c2ccc(O)cc2)NC(=O)[C@@H]2C[C@@H](O)CN2C(=O)[C@H]([C@@H](C)O)NC1=O yielded concentration at 24 h of 180

====

procedure.text: in vivo
particulars: Sprague-Dawley, rat, lung, inhaled, 2 mg/kg
reported.property: concentration at 117 h (ng/g)
// units = ng/g; emit number, no label

Data point: CC[C@H](C)C[C@H](C)CCCCCCCCC(=O)N[C@H]1C[C@@H](O)[C@@H](NCCN)NC(=O)[C@@H]2[C@@H](O)CCN2C(=O)[C@H]([C@H](O)CCN)NC(=O)[C@H]([C@H](O)[C@@H](O)c2ccc(O)cc2)NC(=O)[C@@H]2C[C@@H](O)CN2C(=O)[C@H]([C@@H](C)O)NC1=O [Caspofungin, caspofungin] ; concentration at 117 h = 1350

====

procedure.text: in vivo
particulars: Sprague-Dawley, rat, lung, inhaled, 2 mg/kg
reported.property: concentration at 351 h (ng/g)
Give the quantity in ng/g, number only.

For CC[C@H](C)C[C@H](C)CCCCCCCCC(=O)N[C@H]1C[C@@H](O)[C@@H](NCCN)NC(=O)[C@@H]2[C@@H](O)CCN2C(=O)[C@H]([C@H](O)CCN)NC(=O)[C@H]([C@H](O)[C@@H](O)c2ccc(O)cc2)NC(=O)[C@@H]2C[C@@H](O)CN2C(=O)[C@H]([C@@H](C)O)NC1=O [Caspofungin, caspofungin] the molecule record lists concentration at 351 h as 20

====

procedure.text: in vivo
particulars: Sprague-Dawley, rat, liver, iv, 2 mg/kg
reported.property: concentration at 2 h (ng/g)
# value in ng/g; strip the unit string

Per the records, this compound ( CC[C@H](C)C[C@H](C)CCCCCCCCC(=O)N[C@H]1C[C@@H](O)[C@@H](NCCN)NC(=O)[C@@H]2[C@@H](O)CCN2C(=O)[C@H]([C@H](O)CCN)NC(=O)[C@H]([C@H](O)[C@@H](O)c2ccc(O)cc2)NC(=O)[C@@H]2C[C@@H](O)CN2C(=O)[C@H]([C@@H](C)O)NC1=O ) has concentration at 2 h equal to 310

====

procedure.text: in vivo
particulars: Sprague-Dawley, rat, liver, inhaled, 2 mg/kg
reported.property: concentration at 168 h
Quick note: unit goes after the number.

Field concentration at 168 h (entry CC[C@H](C)C[C@H](C)CCCCCCCCC(=O)N[C@H]1C[C@@H](O)[C@@H](NCCN)NC(=O)[C@@H]2[C@@H](O)CCN2C(=O)[C@H]([C@H](O)CCN)NC(=O)[C@H]([C@H](O)[C@@H](O)c2ccc(O)cc2)NC(=O)[C@@H]2C[C@@H](O)CN2C(=O)[C@H]([C@@H](C)O)NC1=O ) reads 20 ng/g

====

procedure.text: in vivo
particulars: Sprague-Dawley, rat, lung, inhaled, 7.2 mg/kg
reported.property: concentration at 78 h (ng/g)
Express your answer in ng/g, writing the number without its unit.

Field concentration at 78 h (entry CC[C@H](C)C[C@H](C)CCCCCCCCC(=O)N[C@H]1C[C@@H](O)[C@@H](NCCN)NC(=O)[C@@H]2[C@@H](O)CCN2C(=O)[C@H]([C@H](O)CCN)NC(=O)[C@H]([C@H](O)[C@@H](O)c2ccc(O)cc2)NC(=O)[C@@H]2C[C@@H](O)CN2C(=O)[C@H]([C@@H](C)O)NC1=O ) reads 9750

====

procedure.text: in vivo
particulars: Sprague-Dawley, rat, lung, inhaled, 2 mg/kg
reported.property: concentration at 78 h (ng/g)
Express it in ng/g; write the number only.

For reference, reported concentration at 78 h for CC[C@H](C)C[C@H](C)CCCCCCCCC(=O)N[C@H]1C[C@@H](O)[C@@H](NCCN)NC(=O)[C@@H]2[C@@H](O)CCN2C(=O)[C@H]([C@H](O)CCN)NC(=O)[C@H]([C@H](O)[C@@H](O)c2ccc(O)cc2)NC(=O)[C@@H]2C[C@@H](O)CN2C(=O)[C@H]([C@@H](C)O)NC1=O [Caspofungin, caspofungin] stands at 2710

====

procedure.text: in vivo
particulars: Sprague-Dawley, rat, liver, iv, 2 mg/kg
reported.property: concentration at 0.5 h (ng/g)
Use ng/g as the unit, but write only the number.

compound CC[C@H](C)C[C@H](C)CCCCCCCCC(=O)N[C@H]1C[C@@H](O)[C@@H](NCCN)NC(=O)[C@@H]2[C@@H](O)CCN2C(=O)[C@H]([C@H](O)CCN)NC(=O)[C@H]([C@H](O)[C@@H](O)c2ccc(O)cc2)NC(=O)[C@@H]2C[C@@H](O)CN2C(=O)[C@H]([C@@H](C)O)NC1=O , concentration at 0.5 h observed: 250

====

procedure.text: in vivo
particulars: Sprague-Dawley, rat, kidney, iv, 2 mg/kg
reported.property: concentration at 0.5 h (ng/g)
Report only the number, with the unit ng/g understood.

concentration at 0.5 h for CC[C@H](C)C[C@H](C)CCCCCCCCC(=O)N[C@H]1C[C@@H](O)[C@@H](NCCN)NC(=O)[C@@H]2[C@@H](O)CCN2C(=O)[C@H]([C@H](O)CCN)NC(=O)[C@H]([C@H](O)[C@@H](O)c2ccc(O)cc2)NC(=O)[C@@H]2C[C@@H](O)CN2C(=O)[C@H]([C@@H](C)O)NC1=O is 500

====

procedure.text: in vivo
particulars: Sprague-Dawley, rat, lung, iv, 2 mg/kg
reported.property: concentration at 168 h (ng/g)
Give your result in ng/g as a bare value.

Sample CC[C@H](C)C[C@H](C)CCCCCCCCC(=O)N[C@H]1C[C@@H](O)[C@@H](NCCN)NC(=O)[C@@H]2[C@@H](O)CCN2C(=O)[C@H]([C@H](O)CCN)NC(=O)[C@H]([C@H](O)[C@@H](O)c2ccc(O)cc2)NC(=O)[C@@H]2C[C@@H](O)CN2C(=O)[C@H]([C@@H](C)O)NC1=O ; concentration at 168 h observed: 0

====

procedure.text: in vivo
particulars: Sprague-Dawley, rat, lung, inhaled, 7.2 mg/kg
reported.property: concentration at 117 h (ng/g)
Answer format: numeric, ng/g implied, no suffix.

For reference, reported concentration at 117 h for CC[C@H](C)C[C@H](C)CCCCCCCCC(=O)N[C@H]1C[C@@H](O)[C@@H](NCCN)NC(=O)[C@@H]2[C@@H](O)CCN2C(=O)[C@H]([C@H](O)CCN)NC(=O)[C@H]([C@H](O)[C@@H](O)c2ccc(O)cc2)NC(=O)[C@@H]2C[C@@H](O)CN2C(=O)[C@H]([C@@H](C)O)NC1=O [Caspofungin, caspofungin] stands at 4880

====

procedure.text: in vivo
particulars: Sprague-Dawley, rat, lung, inhaled, 7.2 mg/kg
reported.property: concentration at 195 h (ng/g)
# number only, unit ng/g dropped from output

Lab note: CC[C@H](C)C[C@H](C)CCCCCCCCC(=O)N[C@H]1C[C@@H](O)[C@@H](NCCN)NC(=O)[C@@H]2[C@@H](O)CCN2C(=O)[C@H]([C@H](O)CCN)NC(=O)[C@H]([C@H](O)[C@@H](O)c2ccc(O)cc2)NC(=O)[C@@H]2C[C@@H](O)CN2C(=O)[C@H]([C@@H](C)O)NC1=O gave concentration at 195 h of 1220

====

procedure.text: in vivo
particulars: Sprague-Dawley, rat, lung, inhaled, 2 mg/kg
reported.property: concentration at 39 h (ng/g)
State the answer as a number, implicitly in ng/g.

Recorded concentration at 39 h (molecule CC[C@H](C)C[C@H](C)CCCCCCCCC(=O)N[C@H]1C[C@@H](O)[C@@H](NCCN)NC(=O)[C@@H]2[C@@H](O)CCN2C(=O)[C@H]([C@H](O)CCN)NC(=O)[C@H]([C@H](O)[C@@H](O)c2ccc(O)cc2)NC(=O)[C@@H]2C[C@@H](O)CN2C(=O)[C@H]([C@@H](C)O)NC1=O [Caspofungin, caspofungin] ): 5420

====

procedure.text: in vivo
particulars: Sprague-Dawley, rat, lung, inhaled, 7.2 mg/kg
reported.property: concentration at 351 h
Answers without a unit are incomplete; give the number and then its unit.

So, CC[C@H](C)C[C@H](C)CCCCCCCCC(=O)N[C@H]1C[C@@H](O)[C@@H](NCCN)NC(=O)[C@@H]2[C@@H](O)CCN2C(=O)[C@H]([C@H](O)CCN)NC(=O)[C@H]([C@H](O)[C@@H](O)c2ccc(O)cc2)NC(=O)[C@@H]2C[C@@H](O)CN2C(=O)[C@H]([C@@H](C)O)NC1=O ? Its concentration at 351 h was 80 ng/g
